Values were extracted from patent US20210163604A1.

# tested-target: T1, Recombinant Human c-Met-10x His (human, UniProt P08581 25-932)
# T1 construct: Made in-house
# T1 sequence (P08581 other isoform, or with tags, fused parts or gaps limits assumed): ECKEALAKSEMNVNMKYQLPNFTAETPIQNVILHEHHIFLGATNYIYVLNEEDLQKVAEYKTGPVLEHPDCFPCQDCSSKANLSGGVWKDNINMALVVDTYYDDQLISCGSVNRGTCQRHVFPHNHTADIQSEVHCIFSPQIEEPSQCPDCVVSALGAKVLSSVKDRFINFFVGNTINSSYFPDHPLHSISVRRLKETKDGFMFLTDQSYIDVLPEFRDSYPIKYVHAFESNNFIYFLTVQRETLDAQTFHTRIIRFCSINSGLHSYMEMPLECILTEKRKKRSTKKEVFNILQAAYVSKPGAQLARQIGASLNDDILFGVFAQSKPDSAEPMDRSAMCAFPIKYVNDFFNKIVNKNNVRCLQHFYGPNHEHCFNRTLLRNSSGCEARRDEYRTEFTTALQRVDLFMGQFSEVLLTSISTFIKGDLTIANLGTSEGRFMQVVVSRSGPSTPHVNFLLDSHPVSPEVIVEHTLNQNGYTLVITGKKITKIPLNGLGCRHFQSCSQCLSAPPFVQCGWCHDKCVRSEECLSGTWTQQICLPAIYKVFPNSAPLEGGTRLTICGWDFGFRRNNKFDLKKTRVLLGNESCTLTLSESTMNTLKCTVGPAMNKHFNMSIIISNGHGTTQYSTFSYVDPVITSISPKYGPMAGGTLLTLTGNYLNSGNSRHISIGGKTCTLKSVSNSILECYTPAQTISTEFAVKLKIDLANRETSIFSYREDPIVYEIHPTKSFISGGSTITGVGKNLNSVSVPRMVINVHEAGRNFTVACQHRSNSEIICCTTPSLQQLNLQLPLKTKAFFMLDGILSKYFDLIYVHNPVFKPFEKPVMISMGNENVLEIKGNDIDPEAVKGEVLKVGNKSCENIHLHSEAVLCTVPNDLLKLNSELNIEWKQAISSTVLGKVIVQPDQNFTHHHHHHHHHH
# protocol-text: MET Binding ELISA on plate-bound human cMET, direct binding; the half-maximal value is printed as IC50
quantity-name: IC50
Answer format: value, then unit.

Example results:
# binder, IC50
measured = [
    ("hD12-II (antibody hD12 attached to the payload of chemical formula II, stochastic conjugation) (antibody, human IgG2, kappa, V domains shown, payload possibly on cysteines (random positions); payload of chemical formula II (pyrrolobenzodiazepine toxin and linking group) linked through maleimide to cysteine thiols at random positions, also called hD12-vc-II) VH: QVQLVQSGAEVKKPGASVKVSCKASGYTFTSYWMHWVKQAPGQGLDWIGYIKPSTDNTEYNQKFKDKATLTADKSTSTAYMELSSLRSEDTAVYYCARSYGNYPLMDYWGQGTTVTVSS VL: QIVLTQSPAILSLSPGERATLSCSASSSVTSNYLYWYQQKPGSSPKLLIYSTSNLASGVPARFSGSGSGTSYTLTISSLEAEDAASYFCHQWSSYPPTFGSGTKLEIKR", "0.052 µg/mL"),
    ("hD12-XI (antibody hD12 attached to the payload of chemical formula XI, stochastic conjugation) (antibody, human IgG2, kappa, V domains shown, payload possibly on cysteines (random positions); payload of chemical formula XI linked through maleimide to cysteine thiols at random positions, Antibody-drug conjugate; also called hD12-vc-XI) VH: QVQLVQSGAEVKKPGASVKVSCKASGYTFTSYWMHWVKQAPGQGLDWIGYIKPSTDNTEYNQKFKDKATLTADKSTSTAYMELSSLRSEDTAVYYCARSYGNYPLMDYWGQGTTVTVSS VL: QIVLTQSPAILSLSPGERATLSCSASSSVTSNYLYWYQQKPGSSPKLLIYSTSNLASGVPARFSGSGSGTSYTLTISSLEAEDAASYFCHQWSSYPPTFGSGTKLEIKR", "0.103 µg/mL"),
    ("hD12-VI (antibody hD12 attached to the payload of chemical formula VI, stochastic conjugation) (antibody, human IgG2, kappa, V domains shown, payload possibly on cysteines (random positions); payload of chemical formula VI linked through maleimide to cysteine thiols at random positions, Antibody-drug conjugate; also called hD12-vc-VI) VH: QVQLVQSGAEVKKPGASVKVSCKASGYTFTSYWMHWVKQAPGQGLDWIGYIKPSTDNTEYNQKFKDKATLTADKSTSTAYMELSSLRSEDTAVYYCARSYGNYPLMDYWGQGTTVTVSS VL: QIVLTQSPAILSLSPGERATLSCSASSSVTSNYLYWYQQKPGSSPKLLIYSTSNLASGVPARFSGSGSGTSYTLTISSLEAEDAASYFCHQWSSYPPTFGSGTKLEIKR", "0.036 µg/mL"),
    ("hD12-IV (antibody hD12 attached to the payload of chemical formula IV, stochastic conjugation) (antibody, human IgG2, kappa, V domains shown, payload possibly on cysteines (random positions); payload of chemical formula IV linked through maleimide to cysteine thiols at random positions, Antibody-drug conjugate; also called hD12-vc-IV) VH: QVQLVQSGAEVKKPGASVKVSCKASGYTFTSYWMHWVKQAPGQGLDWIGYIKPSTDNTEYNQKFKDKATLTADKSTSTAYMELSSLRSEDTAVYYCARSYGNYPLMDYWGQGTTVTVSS VL: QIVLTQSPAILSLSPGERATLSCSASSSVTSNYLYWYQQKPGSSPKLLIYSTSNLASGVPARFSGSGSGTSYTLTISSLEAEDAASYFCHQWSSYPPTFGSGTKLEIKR", "0.058 µg/mL"),
]

# input binder: hD12-VII (antibody hD12 attached to the payload of chemical formula VII, stochastic conjugation) (antibody, human IgG2, kappa, V domains shown, payload possibly on cysteines (random positions); payload of chemical formula VII linked through maleimide to cysteine thiols at random positions, Antibody-drug conjugate; also called hD12-vc-VII) VH: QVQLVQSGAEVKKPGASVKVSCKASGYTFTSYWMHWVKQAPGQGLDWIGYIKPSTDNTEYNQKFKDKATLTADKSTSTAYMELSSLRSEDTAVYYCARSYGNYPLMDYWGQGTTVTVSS VL: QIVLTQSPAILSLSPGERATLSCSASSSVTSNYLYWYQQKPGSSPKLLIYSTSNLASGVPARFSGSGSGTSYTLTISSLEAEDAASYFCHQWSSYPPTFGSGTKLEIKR ; wanted: its IC50 0.042 µg/mL
